target: wild-type FLT3 phosphorylation in Baf3 FLT3 cells (Homo sapiens, UniProt P36888); test: Cell-based FLT3 receptor ELISA; conditions: uncertainty ±20%
Sequence (P36888 27-993): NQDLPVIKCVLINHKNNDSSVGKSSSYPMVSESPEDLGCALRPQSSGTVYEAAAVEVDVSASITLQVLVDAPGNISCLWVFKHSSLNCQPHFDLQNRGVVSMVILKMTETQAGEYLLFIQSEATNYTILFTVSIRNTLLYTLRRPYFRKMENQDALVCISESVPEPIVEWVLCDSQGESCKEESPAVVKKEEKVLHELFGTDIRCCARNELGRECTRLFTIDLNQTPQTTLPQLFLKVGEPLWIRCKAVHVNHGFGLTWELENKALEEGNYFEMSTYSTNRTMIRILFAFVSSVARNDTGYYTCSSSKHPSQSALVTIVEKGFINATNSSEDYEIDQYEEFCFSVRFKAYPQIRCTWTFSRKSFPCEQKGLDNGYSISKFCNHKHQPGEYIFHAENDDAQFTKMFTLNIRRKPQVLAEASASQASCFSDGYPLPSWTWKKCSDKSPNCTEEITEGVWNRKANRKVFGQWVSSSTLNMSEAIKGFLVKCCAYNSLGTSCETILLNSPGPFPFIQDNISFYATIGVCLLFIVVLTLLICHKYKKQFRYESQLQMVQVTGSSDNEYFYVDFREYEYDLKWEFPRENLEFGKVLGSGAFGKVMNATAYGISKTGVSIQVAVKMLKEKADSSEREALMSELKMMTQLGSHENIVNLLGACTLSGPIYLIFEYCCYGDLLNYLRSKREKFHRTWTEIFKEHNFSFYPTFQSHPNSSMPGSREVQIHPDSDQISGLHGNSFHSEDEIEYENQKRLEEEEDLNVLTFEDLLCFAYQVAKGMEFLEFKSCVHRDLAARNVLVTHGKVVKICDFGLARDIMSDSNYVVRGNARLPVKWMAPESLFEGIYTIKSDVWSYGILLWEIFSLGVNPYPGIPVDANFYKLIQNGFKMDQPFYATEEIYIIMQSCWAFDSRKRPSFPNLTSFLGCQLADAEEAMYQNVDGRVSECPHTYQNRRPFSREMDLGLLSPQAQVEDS
Where a name gives a salt, the structure may show the parent alone.
observable: IC50 (nM)
I only need the number, in nM, no unit after it.

compound: N#Cc1c[nH]c(C(=O)Nc2ccc(C3CCNCC3)cc2C2=CCCCC2)n1 [Compound 14, trifluoroacetic acid salt]
observable: IC50
observed_measurement: 770

Req: Query: IC50; subject: CN1CCN(c2ccc(NC(=O)c3ccc(C#N)o3)c(C3=CCCCC3)c2)CC1
Resp: 1300

---

target: isolated kinase domain of the human FLT3 receptor (a.a. 571-993) (Homo sapiens, UniProt P36888); construct: human FLT3 receptor (a.a. 571-993); experiment: FLT3 fluorescence polarization kinase assay; conditions: 150 uM ATP; uncertainty ±10%; read-out: Flt-3 IC50
Sequence (P36888 571-993): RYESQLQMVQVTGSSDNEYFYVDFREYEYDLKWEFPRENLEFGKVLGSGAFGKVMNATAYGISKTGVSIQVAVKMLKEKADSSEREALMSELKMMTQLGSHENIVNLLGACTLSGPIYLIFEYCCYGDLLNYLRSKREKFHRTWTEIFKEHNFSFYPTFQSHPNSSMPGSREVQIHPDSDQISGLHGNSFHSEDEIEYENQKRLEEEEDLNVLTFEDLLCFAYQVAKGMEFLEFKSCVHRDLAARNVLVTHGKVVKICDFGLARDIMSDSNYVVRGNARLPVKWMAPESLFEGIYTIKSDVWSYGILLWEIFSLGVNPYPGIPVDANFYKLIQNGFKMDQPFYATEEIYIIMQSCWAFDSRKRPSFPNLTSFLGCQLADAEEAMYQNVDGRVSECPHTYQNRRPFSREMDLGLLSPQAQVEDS
Structures can show the parent of a compound that is named as a salt.
observable: pIC50
Interpret pIC50 as the negative base-10 log of the concentration measured in mol/L.

Use these answered entries as a reference point.
compound: CS(=O)(=O)CC(=O)N1CCC(c2ccc(NC(=O)c3nc(C#N)c[nH]3)c(C3=CCCCC3)c2)CC1
pIC50: 6.89

compound: CN1CCN(c2ccc(NC(=O)c3ccc(C#N)o3)c(C3=CCOCC3)c2)CC1
pIC50: 5.91

compound: CC(=O)N1CCC(c2ccc(NC(=O)c3nc(C#N)c[nH]3)c(C3=CCCCC3)c2)CC1
pIC50: 7.41

In the following, a different compound is considered.
Req: Query: pIC50; subject: C[C@@H]1CC(c2ccc(NC(=O)c3ncc(C#N)[nH]3)c(C3=CCCCC3)c2)C[C@H](C)N1 (stereo partly shown) [Compound 51a, bis trifluoroacetic acid salt]
Resp: 8.64

---

Target: isolated kinase domain of the human FLT3 receptor (a.a. 571-993) (Homo sapiens)
Construct: human FLT3 receptor (a.a. 571-993)
Test: FLT3 fluorescence polarization kinase assay
Conditions: 150 uM ATP; uncertainty ±10%; read-out: Flt-3 IC50
Source text: The FLT3 FP assay utilizes the fluorescein-labeled phosphopeptide and the anti-phosphotyrosine antibody included in the Panvera Phospho-Tyrosine Kinase Kit (Green) supplied by Invitrogen. When FLT3 phosphorylates polyGlu4Tyr, the fluorescein-labeled phosphopeptide is displaced from the anti-phosphotyrosine antibody by the phosphorylated poly Glu4Tyr, thus decreasing the FP value. […] The kinase reaction is stopped with the addition of EDTA. […]
pIC50: −log10 of the molar value. Structures can show the parent of a compound that is named as a salt.
Note to self: values exactly at 7 are 1. So pIC50 at or above 7 is 1, below is 0.

Req: Reported pIC50 reaches at least 7 for CN1CCN(c2ccc(NC(=O)c3ccc(C#N)o3)c(C3=CCCCC3)c2)CC1 ?
Resp: 0

Req: Reported pIC50 reaches at least 7 for N#Cc1c[nH]c(C(=O)Nc2ccc(C3CCNCC3)cc2C2=CCCCC2)n1 [Compound 14, trifluoroacetic acid salt] ?
Resp: 1

Req: Reported pIC50 reaches at least 7 for N#Cc1c[nH]c(C(=O)Nc2ccc(C3CCNCC3)cc2C2=CCS(=O)(=O)CC2)n1 [Compound 36, trifluoroacetic acid salt] ?
Resp: 0

Req: Reported pIC50 reaches at least 7 for CC(=O)N1CCC(c2ccc(NC(=O)c3nc(C#N)c[nH]3)c(C3=CCCNC3)c2)CC1 [Compound 46, trifluoroacetic acid salt] ?
Resp: 1

---

molecular target: isolated kinase domain of the human FLT3 receptor (a.a. 571-993) (Homo sapiens, UniProt P36888); construct: human FLT3 receptor (a.a. 571-993); experiment: FLT3 fluorescence polarization kinase assay; settings: 150 uM ATP; uncertainty ±10%; read-out: Flt-3 IC50
Structures can show the parent of a compound that is named as a salt.
Each item that follows carries a reported IC50.

compound: N#Cc1c[nH]c(C(=O)Nc2ccc(C3CCNCC3)cc2C2=CCCCC2)c1 [Compound 13, trifluoroacetic acid salt]
observable: IC50
observed_measurement: 34 nM
//
compound: Cn1ccnc1CN1CCC(c2ccc(NC(=O)c3nc(C#N)c[nH]3)c(C3=CCCC3)c2)CC1 [Compound 23, trifluoroacetic acid salt]
observable: IC50
observed_measurement: 16 nM
//
compound: N#Cc1c[nH]c(C(=O)Nc2ccc(C3CCS(=O)(=O)CC3)cc2C2=CCCCC2)n1
observable: IC50
observed_measurement: 120 nM
//
compound: CC1CC=C(c2cc(C3CCNCC3)ccc2NC(=O)c2nc(C#N)c[nH]2)CC1 (stereo not shown) [Compound 17, trifluoroacetic acid salt]
observable: IC50
observed_measurement: 13 nM
//
compound: N#Cc1c[nH]c(C(=O)Nc2ccc(C3CCN(CCO)CC3)cc2C2=CCCCC2)n1 [Compound 26, trifluoroacetic acid salt]
observable: IC50
observed_measurement: 53 nM
//
compound: Cc1ccccc1-c1cc(N2CCN(C)CC2)ccc1NC(=O)c1ccc(C#N)o1
observable: IC50
observed_measurement: 97 nM

Req: Query: IC50; subject: N#Cc1c[nH]c(C(=O)Nc2ccc(C3CCN(C(N)=O)CC3)cc2C2=CCCCC2)n1
Resp: 370 nM
